# measurementTarget: hOATP2B1 (Homo sapiens)
# Sequence (O94956 whole entry): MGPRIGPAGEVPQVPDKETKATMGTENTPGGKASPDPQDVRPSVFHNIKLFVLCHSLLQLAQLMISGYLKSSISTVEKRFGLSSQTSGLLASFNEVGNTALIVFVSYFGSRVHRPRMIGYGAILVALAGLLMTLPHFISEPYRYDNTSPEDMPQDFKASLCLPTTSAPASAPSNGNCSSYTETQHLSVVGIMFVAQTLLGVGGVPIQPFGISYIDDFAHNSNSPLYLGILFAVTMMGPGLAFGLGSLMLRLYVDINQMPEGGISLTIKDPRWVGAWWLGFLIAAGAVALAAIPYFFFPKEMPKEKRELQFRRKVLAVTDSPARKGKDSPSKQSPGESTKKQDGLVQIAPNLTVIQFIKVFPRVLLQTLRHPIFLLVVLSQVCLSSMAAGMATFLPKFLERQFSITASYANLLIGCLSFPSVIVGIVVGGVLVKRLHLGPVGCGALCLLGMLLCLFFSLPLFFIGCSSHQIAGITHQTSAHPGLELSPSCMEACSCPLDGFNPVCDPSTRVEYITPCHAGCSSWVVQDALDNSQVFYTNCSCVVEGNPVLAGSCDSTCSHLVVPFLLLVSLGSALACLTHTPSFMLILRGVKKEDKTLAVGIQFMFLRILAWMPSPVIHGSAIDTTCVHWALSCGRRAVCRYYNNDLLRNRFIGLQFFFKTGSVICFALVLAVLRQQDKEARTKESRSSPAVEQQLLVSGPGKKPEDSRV
# experimentalProtocol: Cellular uptake assay: intracellular accumulation in HEK293-hOATP2B1 vs HEK293-MOCK cells (HPLC-MS/MS)
# details: 0.25 μM, HBSS pH7.4, 37 °C, 20 min
increase of intracellular accumulation in HEK293-hOATP2B1 compared to HEK293-MOCK listing for selected compounds.
measuredQuantity: increase of intracellular accumulation in HEK293-hOATP2B1 compared to HEK293-MOCK

compound="CC(C)n1c(/C=C/C(O)CC(O)CC(=O)O)c(-c2ccc(F)cc2)c2ccccc21 (stereo not shown)" datavalue="2 to 3 fold"
compound="C[C@]12CC[C@@H]3c4ccc(OS(=O)(=O)[O-])cc4CC[C@H]3[C@@H]1CCC2=O.[Na+] [E-3-S, estrone-3-sulfate sodium salt]" datavalue="2 to 3 fold"
